Target: human M5 muscarinic receptor (Homo sapiens)
Sequence (P08912 whole entry): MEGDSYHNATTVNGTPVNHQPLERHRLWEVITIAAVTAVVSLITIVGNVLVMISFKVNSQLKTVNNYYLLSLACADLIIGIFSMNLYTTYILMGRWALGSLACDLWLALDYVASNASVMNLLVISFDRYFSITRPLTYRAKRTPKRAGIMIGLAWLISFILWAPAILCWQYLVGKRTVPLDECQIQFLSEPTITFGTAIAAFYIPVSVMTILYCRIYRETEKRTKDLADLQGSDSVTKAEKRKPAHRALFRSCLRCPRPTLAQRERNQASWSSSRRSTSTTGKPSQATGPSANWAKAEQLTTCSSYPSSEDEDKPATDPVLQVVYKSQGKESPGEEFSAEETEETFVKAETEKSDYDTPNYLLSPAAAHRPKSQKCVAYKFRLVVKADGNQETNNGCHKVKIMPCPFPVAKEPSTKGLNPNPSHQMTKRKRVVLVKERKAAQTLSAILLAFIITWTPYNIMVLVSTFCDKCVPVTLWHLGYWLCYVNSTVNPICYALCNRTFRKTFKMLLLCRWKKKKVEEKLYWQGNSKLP
Test: GTP-γ-[35S] binding, antibody capture SPA (agonist and antagonist mode)
pEC50: −log10 of the molar value.
Reported property: pEC50

CCCSc1nsnc1[C@H]1CN2CCC[C@H]1C2 [PTAC]: 7.81

----------
Target: M2AChR (Homo sapiens, UniProt P08172)
Sequence (P08172 whole entry): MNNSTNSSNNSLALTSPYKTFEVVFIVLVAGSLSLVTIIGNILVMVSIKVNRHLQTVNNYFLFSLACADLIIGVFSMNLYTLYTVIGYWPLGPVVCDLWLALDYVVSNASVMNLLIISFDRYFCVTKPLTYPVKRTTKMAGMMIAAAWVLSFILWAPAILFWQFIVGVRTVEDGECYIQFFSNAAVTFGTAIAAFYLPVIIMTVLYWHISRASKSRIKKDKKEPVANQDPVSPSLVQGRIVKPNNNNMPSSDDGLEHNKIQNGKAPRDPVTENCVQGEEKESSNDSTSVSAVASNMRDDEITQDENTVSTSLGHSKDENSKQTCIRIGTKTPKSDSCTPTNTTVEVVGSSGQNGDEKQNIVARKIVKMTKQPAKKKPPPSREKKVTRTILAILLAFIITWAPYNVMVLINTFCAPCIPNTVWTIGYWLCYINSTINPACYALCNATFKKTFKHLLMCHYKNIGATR
Reported property: Ki (nM)

CCCSc1nsnc1[C@H]1CN2CCC[C@H]1C2: 3.8

----------
Molecular target: M3AChR (Homo sapiens, UniProt P20309)
Sequence (P20309 whole entry): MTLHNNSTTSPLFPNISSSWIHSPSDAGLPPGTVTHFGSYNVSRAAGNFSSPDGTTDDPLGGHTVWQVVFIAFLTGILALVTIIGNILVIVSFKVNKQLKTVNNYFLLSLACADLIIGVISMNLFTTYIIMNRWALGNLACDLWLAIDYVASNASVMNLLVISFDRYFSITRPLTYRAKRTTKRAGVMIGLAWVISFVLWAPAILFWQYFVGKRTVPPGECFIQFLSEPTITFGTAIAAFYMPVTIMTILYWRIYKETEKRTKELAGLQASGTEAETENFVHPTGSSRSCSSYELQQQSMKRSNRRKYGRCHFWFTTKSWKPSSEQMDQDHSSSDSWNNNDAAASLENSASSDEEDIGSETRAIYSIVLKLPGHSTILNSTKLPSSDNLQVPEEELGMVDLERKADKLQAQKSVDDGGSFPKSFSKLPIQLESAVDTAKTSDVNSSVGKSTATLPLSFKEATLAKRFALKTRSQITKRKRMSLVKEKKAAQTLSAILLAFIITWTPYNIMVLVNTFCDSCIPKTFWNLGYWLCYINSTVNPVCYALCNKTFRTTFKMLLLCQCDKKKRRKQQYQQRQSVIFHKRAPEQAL
Test: Competitive radioligand binding
pKi: −log10 of the molar value.
Reported property: pKi

CCCSc1nsnc1[C@H]1CN2CCC[C@H]1C2: 9.40
